Reference for the values: the METLIN SMRT retention time set (Domingo-Almenara et al. 2019)

# RP-LC retention time annotations
test: gradient 5% acetonitrile 3 min, to 50% in 2 min, to 85% in 15 min, held 3 min, 100 µL/min; details: column: Zorbax Extend-C18 2.1 x 50 mm; eluents: water / acetonitrile, 0.1% formic acid

As a guide, the following entries are already answered.
CCN(Cc1ccccc1)C(=O)CS(=O)Cc1cnn(-c2ccccc2)c1-n1cccc1 (centres undefined) | 825 s
COc1ccc(C)cc1Nc1c(-c2nc(C)no2)cnc2nc(C)ccc12 | 764 s

[Q] # return recorded RP-LC retention time for input O=C(Nc1nc(-c2ccccc2)cs1)NC1CCCCC1
[A] 991 s

[Q] # return recorded RP-LC retention time for input COc1ccc2c(c1)C1(CCN(S(=O)(=O)c3ccccc3)C1)C(=O)N2C (centres undefined)
[A] 882 s

[Q] # return recorded RP-LC retention time for input O=C(Cn1cccn1)Nc1nc(-c2cccnc2)cs1
[A] 537 s

[Q] # return recorded RP-LC retention time for input O=S(=O)(Cc1ccccc1)N1CCCC(c2nnnn2-c2ccccc2)C1 (centres undefined)
[A] 905 s

[Q] # return recorded RP-LC retention time for input O=C(NC1CCN(c2cc(-c3ccc(F)cc3)[nH]n2)C1)c1ccccc1Cl (centres undefined)
[A] 721 s

[Q] # return recorded RP-LC retention time for input COc1ccc(C)cc1NC(=O)N1CCN(c2cnn3c(C)nnc3c2)CC1
[A] 648 s

[Q] # return recorded RP-LC retention time for input Cc1cc(N(CCCl)CCCl)ccc1/C=N/NC(=O)Cc1cc(=O)oc2cc(O)ccc12
[A] 862 s

[Q] # return recorded RP-LC retention time for input O=C(c1cc(S(=O)(=O)N2CCCCCC2)ccc1Cl)N1CCN(c2ncccn2)CC1
[A] 926 s

[Q] # return recorded RP-LC retention time for input Cc1ccc(-c2coc(-c3ccc(NS(=O)(=O)c4ccc(Cl)s4)cc3)n2)c(C)c1
[A] 1350 s

[Q] # return recorded RP-LC retention time for input O=C(c1ccco1)N1CCCCC1c1nc(C2CC2)n[nH]1 (centres undefined)
[A] 625 s

[Q] # return recorded RP-LC retention time for input O=C(c1nnc(-c2ccc(S(=O)(=O)N3CCCCC3)cc2)o1)N1CCN(c2ccccc2)CC1
[A] 1080 s

[Q] # return recorded RP-LC retention time for input COc1cccc(-c2noc(-c3nn(-c4cccc(F)c4)ccc3=O)n2)c1OC
[A] 807 s
